The values you see were collected from patent US6747012B1.

# ASSAY_PROCEDURE: Tests for hygroscopicity (critical relative humidity)
# Assay type: physicochemical
# TEST_PARAMETERS: stored at 30° C., relative humidities 32 to 91%, until steady state; calculated from increases or decreases in moisture content; hydrochloride
OBSERVABLE: Critical relative humidity (%)

1: COc1cccc2c1C(=O)c1c(O)c3c(c(O)c1C2=O)CC(O)(C(C)=O)CC3OC1CC(N)C(O)C(C)O1.Cl (centres unmarked) [Ex.8, DM hydrochloride]
2: COc1cccc2c1C(=O)c1c(O)c3c(c(O)c1C2=O)CC(O)(C(C)=O)CC3OC1CC(N)C(O)C(C)O1.Cl (centres unmarked) [Ex.6, DM hydrochloride]
Enquiry: Which has the smaller recorded Critical relative humidity (%), 1 or 2 ? The response must carry the label of the picked entry.
Return: 2
(2: 29%, 1: 53%)

a: COc1cccc2c1C(=O)c1c(O)c3c(c(O)c1C2=O)CC(O)(C(C)=O)CC3OC1CC(N)C(O)C(C)O1.Cl (centres unmarked) [Ex.3, DM hydrochloride]
b: COc1cccc2c1C(=O)c1c(O)c3c(c(O)c1C2=O)CC(O)(C(C)=O)CC3OC1CC(N)C(O)C(C)O1.Cl (centres unmarked) [Ex.2, DM hydrochloride]
c: COc1cccc2c1C(=O)c1c(O)c3c(c(O)c1C2=O)CC(O)(C(C)=O)CC3OC1CC(N)C(O)C(C)O1.Cl (centres unmarked) [Ex.4, DM hydrochloride]
Enquiry: // ranking: key=Critical relative humidity (%), reverse=True Answer by listing the labels in the requested order.
Return: b, a, c

----------
# ASSAY_PROCEDURE: Tests for chemical stability (storage at 60° C., HPLC)
# Assay type: physicochemical
# TEST_PARAMETERS: hermetically sealed container, 60° C. for 1 month, HPLC; hydrochloride
OBSERVABLE: Amount of remaining DM (%)

{"COMPOUND": "COc1cccc2c1C(=O)c1c(O)c3c(c(O)c1C2=O)CC(O)(C(C)=O)CC3OC1CC(N)C(O)C(C)O1.Cl (centres unmarked) [Ex.8, DM hydrochloride]", "UNITS_OF_MEASURE": "%", "Amount of remaining DM (%)": 96.5}
{"COMPOUND": "COc1cccc2c1C(=O)c1c(O)c3c(c(O)c1C2=O)CC(O)(C(C)=O)CC3OC1CC(N)C(O)C(C)O1.Cl (centres unmarked) [Ex.5, DM hydrochloride]", "UNITS_OF_MEASURE": "%", "Amount of remaining DM (%)": 97.5}
{"COMPOUND": "COc1cccc2c1C(=O)c1c(O)c3c(c(O)c1C2=O)CC(O)(C(C)=O)CC3OC1CC(N)C(O)C(C)O1.Cl (centres unmarked) [Ex.2, DM hydrochloride]", "UNITS_OF_MEASURE": "%", "Amount of remaining DM (%)": 100}
{"COMPOUND": "COc1cccc2c1C(=O)c1c(O)c3c(c(O)c1C2=O)CC(O)(C(C)=O)CC3OC1CC(N)C(O)C(C)O1.Cl (centres unmarked) [Ex.4, DM hydrochloride]", "UNITS_OF_MEASURE": "%", "Amount of remaining DM (%)": 90.4}
{"COMPOUND": "COc1cccc2c1C(=O)c1c(O)c3c(c(O)c1C2=O)CC(O)(C(C)=O)CC3OC1CC(N)C(O)C(C)O1.Cl (centres unmarked) [Ex.6, DM hydrochloride]", "UNITS_OF_MEASURE": "%", "Amount of remaining DM (%)": 94.2}
{"COMPOUND": "COc1cccc2c1C(=O)c1c(O)c3c(c(O)c1C2=O)CC(O)(C(C)=O)CC3OC1CC(N)C(O)C(C)O1.Cl (centres unmarked) [Ex.7, DM hydrochloride]", "UNITS_OF_MEASURE": "%", "Amount of remaining DM (%)": 97.2}
{"COMPOUND": "COc1cccc2c1C(=O)c1c(O)c3c(c(O)c1C2=O)CC(O)(C(C)=O)CC3OC1CC(N)C(O)C(C)O1.Cl (centres unmarked) [Ex.3, DM hydrochloride]", "UNITS_OF_MEASURE": "%", "Amount of remaining DM (%)": 97.1}
{"COMPOUND": "COc1cccc2c1C(=O)c1c(O)c3c(c(O)c1C2=O)CC(O)(C(C)=O)CC3OC1CC(N)C(O)C(C)O1.Cl (centres unmarked) [Ex.1, DM hydrochloride]", "UNITS_OF_MEASURE": "%", "Amount of remaining DM (%)": 91.4}

----------
# ASSAY_PROCEDURE: Residual solvent content by gas chromatography
# Assay type: physicochemical
# TEST_PARAMETERS: gas chromatography (GC); hydrochloride
OBSERVABLE: Residual solvent content (%)

Some solved entries appear below for comparison.
{"MOLECULE": "COc1cccc2c1C(=O)c1c(O)c3c(c(O)c1C2=O)CC(O)(C(C)=O)CC3OC1CC(N)C(O)C(C)O1.Cl (centres unmarked) [Ex.1, DM hydrochloride]", "RESULT": 0.14}
{"MOLECULE": "COc1cccc2c1C(=O)c1c(O)c3c(c(O)c1C2=O)CC(O)(C(C)=O)CC3OC1CC(N)C(O)C(C)O1.Cl (centres unmarked) [Ex.6, DM hydrochloride]", "RESULT": 0.18}
{"MOLECULE": "COc1cccc2c1C(=O)c1c(O)c3c(c(O)c1C2=O)CC(O)(C(C)=O)CC3OC1CC(N)C(O)C(C)O1.Cl (centres unmarked) [Ex.2, DM hydrochloride]", "RESULT": 0.40}

A: COc1cccc2c1C(=O)c1c(O)c3c(c(O)c1C2=O)CC(O)(C(C)=O)CC3OC1CC(N)C(O)C(C)O1.Cl (centres unmarked) [Ex.5, DM hydrochloride]
B: COc1cccc2c1C(=O)c1c(O)c3c(c(O)c1C2=O)CC(O)(C(C)=O)CC3OC1CC(N)C(O)C(C)O1.Cl (centres unmarked) [Ex.3, DM hydrochloride]
Enquiry: I would appreciate it if you could say which entry, A or B , has the lower Residual solvent content (%) value. Write down the label of the entry you select.
Return: B
(B: 0.03%, A: 0.19%)
